testSummary: Conductivity of neat IL
Format: physicochemical
measurementContext: 25° C.
propertyLabel: conductivity

These recorded examples may help you get a feel for the data.
CCCCCC(=O)[O-].CCCCCCCCCCCCCC[P+](CCCCCC)(CCCCCC)CCCCCC [LANL-20, [PC14H29(C6H13)3][hexanoate]]    0.488 mS/cm
CCCC[N+]1(C)CCCC1.O=S(=O)([N-]S(=O)(=O)C(F)(F)F)C(F)(F)F    1.99 mS/cm
C[N+](C)(C)CCO.NC(N)=O.NC(N)=O.[Cl-]    0.580 mS/cm
CCCCCCCC/C=C\CCCCCCCC(=O)[O-].CCCCCCCCCCCCCC[P+](CCCCCC)(CCCCCC)CCCCCC [LANL-19, [PC14H29(C6H13)3][oleate]]    0.016 mS/cm
CCCCCCCC/C=C\CCCCCCCC(=O)O.CCCCCCCC/C=C\CCCCCCCC(=O)[O-].C[N+](C)(C)CCO    0.087 mS/cm

Give the reported conductivity for this molecule. C[N+](C)(C)CCO.O=S(=O)([N-]S(=O)(=O)C(F)(F)F)C(F)(F)F
1.46 mS/cm

Look up conductivity of CC(C)=CCC/C(C)=C/C(=O)[O-].CCCCCCCCCCCCCC[P+](CCCCCC)(CCCCCC)CCCCCC [LANL-22, [PC14H29(C6H13)3][geranate]] and report it.
0.156 mS/cm

Consider the molecule CCCCCCn1cc[n+](C)c1.[Cl-] [LANL-7, 1-Hexyl-3-Methylimidazolium Chloride] and give its recorded conductivity.
0.340 mS/cm

###

testSummary: Conductivity of neat IL
Format: physicochemical
measurementContext: Table 5
Protocol: Determinations of conductivity were made on an ION450 benchtop meter (Radiometer Analytical) with a 2-pole electrode designed for use in viscous liquids (Radiometer Analytical CDC241-9) and calibrated with KCl. Conductivity was measured three times per sample on stirred 3 mL volumes of neat IL at 25° C. Density was measured three times per IL using a 1 mL volumetric flask and an analytical balance.
Marks after values point to notes of the source that are not given here.
propertyLabel: conductivity

Solved cases (6 shown):
CCCCCC(=O)[O-].CCCCCCCCCCCCCC[P+](CCCCCC)(CCCCCC)CCCCCC [LANL-20, [PC14H29(C6H13)3][hexanoate]]    0.488 mS/cm
CCCCCCCC/C=C\CCCCCCCC(=O)O.CCCCCCCC/C=C\CCCCCCCC(=O)[O-].C[N+](C)(C)CCO    0.0871^b mS/cm
CCCCCCn1cc[n+](C)c1.[Cl-] [LANL-7, 1-Hexyl-3-Methylimidazolium Chloride]    0.340 mS/cm
C[N+](C)(C)CCO.NC(N)=O.NC(N)=O.[Cl-] [LANL-6, urea-choline]    0.580^a mS/cm
CCCCCCCC/C=C\CCCCCCCC(=O)[O-].CCCCCCCCCCCCCC[P+](CCCCCC)(CCCCCC)CCCCCC [LANL-19, [PC14H29(C6H13)3][oleate]]    0.0162 mS/cm
C[N+](C)(C)CCO.O=S(=O)([N-]S(=O)(=O)C(F)(F)F)C(F)(F)F [LANL-12, choline-NTf2]    1.460 mS/cm

Using known records, supply conductivity for CCCC[N+]1(C)CCCC1.O=S(=O)([N-]S(=O)(=O)C(F)(F)F)C(F)(F)F [LANL-1]
1.99 mS/cm

Check the records and state conductivity for CC(C)=CCC/C(C)=C/C(=O)[O-].CCCCCCCCCCCCCC[P+](CCCCCC)(CCCCCC)CCCCCC [LANL-22, [PC14H29(C6H13)3][geranate]]
0.156 mS/cm

###

testSummary: Calculations of molarity and ionic strength
Assay type: physicochemical
measurementContext: neat IL, Table 5
The label is yes (1) for ionic strength below 2 M and no (0) for ionic strength equal to or exceeding 2 M.

These recorded examples may help you get a feel for the data.
CCCCCC(=O)[O-].CCCCCCCCCCCCCC[P+](CCCCCC)(CCCCCC)CCCCCC [LANL-20, [PC14H29(C6H13)3][hexanoate]]    yes (1)
CCCCCCCC/C=C\CCCCCCCC(=O)O.CCCCCCCC/C=C\CCCCCCCC(=O)[O-].C[N+](C)(C)CCO    yes (1)
CCCC[N+]1(C)CCCC1.O=S(=O)([N-]S(=O)(=O)C(F)(F)F)C(F)(F)F    no (0)
C[N+](C)(C)CCO.NC(N)=O.NC(N)=O.[Cl-]    no (0)
CCCCCCn1cc[n+](C)c1.[Cl-] [LANL-7, 1-Hexyl-3-Methylimidazolium Chloride]    no (0)
CC(C)=CCC/C(C)=C/C(=O)[O-].CCCCCCCCCCCCCC[P+](CCCCCC)(CCCCCC)CCCCCC [LANL-22, [PC14H29(C6H13)3][geranate]]    yes (1)

Item CCCCCCCC/C=C\CCCCCCCC(=O)[O-].CCCCCCCCCCCCCC[P+](CCCCCC)(CCCCCC)CCCCCC [LANL-19, [PC14H29(C6H13)3][oleate]] : ionic strength beneath 2 M, strictly?
yes (1)

I wonder whether C[N+](C)(C)CCO.O=S(=O)([N-]S(=O)(=O)C(F)(F)F)C(F)(F)F has ionic strength below 2 M. Can you tell?
no (0)

Each recorded value in this set is attributed to patent US11786597B2.
